hERG current change (%, negative = inhibition) at 10uM reference
Biological target: human ether-à-go-go-related gene (hERG) potassium channel (human);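 further: peak tail current of the secondary pulse compared with the same well before compound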
Sequence (Q12809 whole entry, looked up): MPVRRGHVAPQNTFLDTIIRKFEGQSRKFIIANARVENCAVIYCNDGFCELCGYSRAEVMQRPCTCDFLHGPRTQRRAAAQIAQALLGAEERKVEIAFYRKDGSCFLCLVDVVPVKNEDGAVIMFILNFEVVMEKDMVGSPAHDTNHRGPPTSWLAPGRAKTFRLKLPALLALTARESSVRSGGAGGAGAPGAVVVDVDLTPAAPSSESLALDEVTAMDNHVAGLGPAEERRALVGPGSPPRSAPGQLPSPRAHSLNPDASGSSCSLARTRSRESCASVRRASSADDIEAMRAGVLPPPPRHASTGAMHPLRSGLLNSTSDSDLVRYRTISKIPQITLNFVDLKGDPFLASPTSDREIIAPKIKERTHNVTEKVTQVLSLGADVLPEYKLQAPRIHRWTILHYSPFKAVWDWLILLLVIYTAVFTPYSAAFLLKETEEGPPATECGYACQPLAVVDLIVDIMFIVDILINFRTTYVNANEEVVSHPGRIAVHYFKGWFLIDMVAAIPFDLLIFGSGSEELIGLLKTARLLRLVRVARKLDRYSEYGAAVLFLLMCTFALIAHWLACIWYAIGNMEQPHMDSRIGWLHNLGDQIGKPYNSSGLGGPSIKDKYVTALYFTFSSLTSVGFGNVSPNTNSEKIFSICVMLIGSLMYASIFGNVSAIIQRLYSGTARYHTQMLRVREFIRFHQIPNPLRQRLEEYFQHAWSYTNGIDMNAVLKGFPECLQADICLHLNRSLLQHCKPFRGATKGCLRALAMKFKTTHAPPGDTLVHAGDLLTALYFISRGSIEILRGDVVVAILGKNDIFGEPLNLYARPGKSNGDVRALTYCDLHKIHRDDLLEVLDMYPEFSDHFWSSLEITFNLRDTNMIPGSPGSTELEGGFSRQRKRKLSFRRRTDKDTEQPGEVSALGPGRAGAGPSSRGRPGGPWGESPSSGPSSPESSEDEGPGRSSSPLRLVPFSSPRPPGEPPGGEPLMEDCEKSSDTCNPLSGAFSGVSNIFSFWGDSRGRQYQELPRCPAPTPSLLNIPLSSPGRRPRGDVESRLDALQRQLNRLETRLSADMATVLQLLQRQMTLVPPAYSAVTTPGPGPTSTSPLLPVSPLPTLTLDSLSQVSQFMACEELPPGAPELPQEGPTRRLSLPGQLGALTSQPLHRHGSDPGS
Test: primary screen, population patch clamp on CHO cells stably expressing hERG; higher = less effect of the substance
The campaign covered roughly 310,000 compounds. About 14,000 (4.5%) showed an effect of 50% or more. The effect is printed as a negative number. Shown is part of a subset that was picked to be rich in strong results.
readout-name: hERG current change (%, negative = inhibition) at 10uM (%)

{"columns": ["compound", "target-or-system", "uom", "measurement"],
 "data": [
  ["Cc1cc(C)c(OCC(=O)NCC(c2ccco2)N2CCCCC2)c(C)c1 (stereo not drawn)", "human ether-à-go-go-related gene (hERG) potassium channel (human)", "%", -52.1],
  ["COC(=O)C1=C(c2ccc(F)cc2OCc2ccccc2)C[C@@H]2CC[C@H]1N2C", "human ether-à-go-go-related gene (hERG) potassium channel (human)", "%", -52],
  ["COC(=O)C1=C(c2ccc(F)cc2OCc2ccccc2)C[C@@H]2CC[C@H]1N2C(=O)NC(C)C", "human ether-à-go-go-related gene (hERG) potassium channel (human)", "%", -35.3],
  ["Cc1ccccc1OCC(=O)NCC(c1ccco1)N1CCCCC1 (stereo not drawn)", "human ether-à-go-go-related gene (hERG) potassium channel (human)", "%", -31.4],
  ["CCOc1ccc(S(=O)(=O)N2CCC(C(=O)NCCN3CCOCC3)CC2)cc1C", "human ether-à-go-go-related gene (hERG) potassium channel (human)", "%", 1.77],
  ["COC(=O)C1=C(c2ccc(F)cc2OCc2ccccc2)C[C@@H]2CC[C@H]1N2C(=O)NCC1CC1", "human ether-à-go-go-related gene (hERG) potassium channel (human)", "%", -51.5],
  ["O=C(COc1ccccc1)NCC(c1ccco1)N1CCN(c2ccccc2)CC1 (stereo not drawn)", "human ether-à-go-go-related gene (hERG) potassium channel (human)", "%", -26.6],
  ["COC(=O)C1=C(c2ccc(F)cc2OCc2ccccc2)C[C@@H]2CC[C@H]1N2C(=O)NCc1ccc(F)cc1", "human ether-à-go-go-related gene (hERG) potassium channel (human)", "%", -5.76],
  ["COC(=O)C1=C(c2ccc(F)cc2OCc2ccccc2)C[C@@H]2CC[C@H]1N2C(=O)NC1CC1", "human ether-à-go-go-related gene (hERG) potassium channel (human)", "%", -10.4]
]}

----------
Target: human ether-à-go-go-related gene (hERG) potassium channel (human);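 further: peak tail current of the secondary pulse compared with the same well before compound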
Assay: primary screen, population patch clamp on CHO cells stably expressing hERG; higher = less effect of the substance
Screen size: about 310,000 compounds; about 14,000 (4.5%) showed an effect of 50% or more. The effect is printed as a negative number. The sample as a whole holds a higher share of strong results than the screen did.
readout-name: hERG current change (%, negative = inhibition) at 10uM

{"columns": ["compound", "target-or-system", "measurement"],
 "data": [
  ["COc1cc(/C=C/C(=O)OCC(=O)c2c(N)n(C)c(=O)n(C)c2=O)ccc1OC(F)F", "human ether-à-go-go-related gene (hERG) potassium channel (human)", "6.4%"],
  ["Cc1ccc(OCC(O)CN2CCN(CC(O)COc3ccc(C)cc3Cl)CC2)c(Cl)c1 (centres unmarked)", "human ether-à-go-go-related gene (hERG) potassium channel (human)", "-24.3%"],
  ["COc1ccc(C(=O)NCC(=O)N2CCN(c3ccc(F)cc3)CC2)cc1", "human ether-à-go-go-related gene (hERG) potassium channel (human)", "-1.94%"],
  ["COC(=O)c1ccc(OCC(O)CN2CCOCC2)cc1 (centres unmarked)", "human ether-à-go-go-related gene (hERG) potassium channel (human)", "15%"],
  ["CCOC(=O)N1CCN(CC(O)COc2cc(C)ccc2C(C)C)CC1.Cl (centres unmarked)", "human ether-à-go-go-related gene (hERG) potassium channel (human)", "-26.8%"]
]}
